System: HOS-TE85
procedureSummary: Cytotoxicity against human MNNG/HOS cells incubated for 48 hrs by CCK-8 assay
Assay type: functional, cell-based
measurementParameters: HOS-TE85, 48 h
property: pIC50
Lab note — pIC50 values are minus log10 of concentrations in M.

# get_value(readout= pIC50, system= HOS-TE85) for Oc1ccc(/C=C/c2cc(O)cc(O)c2)cc1
4.69

----------
procedureSummary: Cytotoxicity against human PBMC by MTT assay
Type: tissue-based
property: IC50

INSERT INTO results (structurestring, experimentalvalue) VALUES
  ('O=C(Cn1cc(COc2ccc3ccccc3c2)nn1)Nc1ccc(Cl)cc1', '> 100 µM');

Requested field: IC50. Item: O=C(Cn1cc(COc2cccc3ccccc23)nn1)Nc1ccc(Cl)cc1
> 100 µM
